Assay read-out IC50; system under study: human CSNK1D (Homo sapiens (Human)).
Sequence (P48730 whole entry): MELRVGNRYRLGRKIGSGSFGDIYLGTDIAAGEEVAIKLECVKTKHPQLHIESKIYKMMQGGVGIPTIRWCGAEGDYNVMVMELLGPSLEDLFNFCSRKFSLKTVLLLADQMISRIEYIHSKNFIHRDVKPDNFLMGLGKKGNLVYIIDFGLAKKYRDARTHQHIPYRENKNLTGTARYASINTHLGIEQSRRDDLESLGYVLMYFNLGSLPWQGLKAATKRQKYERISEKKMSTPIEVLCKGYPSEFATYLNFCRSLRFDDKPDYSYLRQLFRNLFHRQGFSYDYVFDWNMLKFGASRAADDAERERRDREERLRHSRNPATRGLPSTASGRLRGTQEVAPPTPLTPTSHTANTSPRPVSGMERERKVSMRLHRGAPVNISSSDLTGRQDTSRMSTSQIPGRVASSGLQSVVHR
readout.kind: IC50 (nM)

[[record]]
molecule = "CC1Cc2[nH]c(-c3ccnc(NC(=O)C(CC(F)F)c4ccc(F)cc4)c3)c(Nc3ccccc3F)c2C(=O)N1C (single isomer, unassigned; (+)) [Example 108]"
u = "nM"
test_value = 4.62

[[record]]
molecule = "Cc1cc(CC(=O)Nc2cc(-c3[nH]c4c(c3Nc3ccccc3)C(=O)N(C)CC4)ccn2)ccc1F"
u = "nM"
test_value = 5.66

[[record]]
molecule = "Cc1ccccc1Nc1c(-c2ccnc(NC(=O)C(C)c3ccc(F)cc3)c2)[nH]c2c1C(=O)NC(C)(C)C2 (racemic) [Example 132]"
u = "nM"
test_value = 32.9


Entry source: patent US12227501B2
